Study target: Mu-type opioid receptor (Homo sapiens, UniProt P35372)
Sequence (P35372 whole entry): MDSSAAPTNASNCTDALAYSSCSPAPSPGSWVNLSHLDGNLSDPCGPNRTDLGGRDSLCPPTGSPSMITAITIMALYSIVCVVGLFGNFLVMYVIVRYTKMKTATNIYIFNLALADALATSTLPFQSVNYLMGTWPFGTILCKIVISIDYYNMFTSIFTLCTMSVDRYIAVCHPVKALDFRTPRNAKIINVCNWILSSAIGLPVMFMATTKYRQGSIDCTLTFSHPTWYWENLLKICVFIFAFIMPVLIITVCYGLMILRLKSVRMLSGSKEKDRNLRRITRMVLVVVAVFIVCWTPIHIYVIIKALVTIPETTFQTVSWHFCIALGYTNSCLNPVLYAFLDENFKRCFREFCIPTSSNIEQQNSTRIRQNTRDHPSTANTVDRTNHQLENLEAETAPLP
Test name: Displacement of [3H]-DPN from recombinant human mu opioid receptor expressed in CHO-K1 cell membranes by radioligand binding assay
Metric name: Ki (nM)

> print(dat)
                            compound.string  result
1  C[C@H]1CN(C[C@H](Cc2ccccc2)C(=O)O)CC[C@@]1(C)c1cccc(O)c1   0.316
2  C[C@H]1CN(C[C@H](Cc2ccccc2)C(=O)NCC(=O)O)CC[C@H]1c1cccc(O)c1   0.316
3  NC(=O)c1cccc([C@H]2C[C@H]3CC[C@@H](C2)N3CCN(CC2CCCCC2)C(=O)C(F)(F)F)c1   0.794
4  CC(C)NC(=O)N(CCN1[C@@H]2CC[C@H]1C[C@@H](c1cccc(C(N)=O)c1)C2)CC1CCCCC1     0.2

---

Test name: AUC(0 to t) in Sprague-Dawley rat at 10 mg/kg, po administered via gavage
Assay type: ADME, organism-based
Assay context: in vivo
Metric name: AUC(0-t) (ng·h/mL)

> print(dat)
                            compound.string  result
1  C[C@H]1CN(C[C@H](Cc2ccccc2)C(=O)NCC(=O)O)CC[C@H]1c1cccc(O)c1       2

---

Test name: Half life in Sprague-Dawley rat at 100 mg/kg, po administered via gavage
Format: ADME, organism-based
Assay context: in vivo
Metric name: half-life (h)

Molecule	Result
C[N+]1(CC2CC2)CC[C@]23c4c5ccc(O)c4O[C@H]2C(=O)CC[C@@]3(O)[C@H]1C5.[Br-] (stereo partly specified) [METHYLNALTREXONE BROMIDE]	2.8

---

Study target: Delta-type opioid receptor (Homo sapiens, UniProt P41143)
Sequence (P41143 whole entry): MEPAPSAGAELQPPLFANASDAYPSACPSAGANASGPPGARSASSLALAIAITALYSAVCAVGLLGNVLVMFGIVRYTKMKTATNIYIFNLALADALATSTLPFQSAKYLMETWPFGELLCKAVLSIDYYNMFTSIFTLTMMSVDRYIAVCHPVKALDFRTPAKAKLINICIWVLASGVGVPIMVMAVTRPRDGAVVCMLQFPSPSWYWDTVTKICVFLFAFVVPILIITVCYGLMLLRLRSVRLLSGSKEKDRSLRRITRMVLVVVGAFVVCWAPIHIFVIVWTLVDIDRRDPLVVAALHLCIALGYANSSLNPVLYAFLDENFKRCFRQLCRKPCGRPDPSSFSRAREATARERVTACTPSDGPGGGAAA
Test name: Displacement of [3H]-DPN from recombinant human delta opioid receptor expressed in CHO-K1 cell membranes by radioligand binding assay
pKi: −log10 of the molar value.
Measured pKi of individual entries
Metric name: pKi

> print(dat)
                             compound.string                              study.target  metric.name  result
 1  CCCCCCN(CCN1[C@@H]2CC[C@H]1C[C@@H](c1cccc(C(N)=O)c1)C2)C(=O)CO  Delta-type opioid receptor (Homo sapiens, UniProt P41143)          pKi    7.20
 2  CCC(CC)CN(CCCN1[C@@H]2CC[C@H]1C[C@@H](c1cccc(C(N)=O)c1)C2)C(=O)CO  Delta-type opioid receptor (Homo sapiens, UniProt P41143)          pKi    8.50
 3  NC(=O)c1cccc([C@H]2C[C@H]3CC[C@@H](C2)N3CCN(CCc2ccccc2)C(=O)CO)c1  Delta-type opioid receptor (Homo sapiens, UniProt P41143)          pKi    7.70
 4  NC(=O)c1cccc([C@H]2C[C@H]3CC[C@@H](C2)N3CCNCC2CCCCC2)c1  Delta-type opioid receptor (Homo sapiens, UniProt P41143)          pKi    8.20
 5  NC(=O)c1cccc([C@H]2C[C@H]3CC[C@@H](C2)N3CCN(CC2CCC2)C(=O)CO)c1  Delta-type opioid receptor (Homo sapiens, UniProt P41143)          pKi    7.50
 6  CCC(CC)CN(CCCCCCN1[C@@H]2CC[C@H]1C[C@@H](c1cccc(C(N)=O)c1)C2)C(=O)CO  Delta-type opioid receptor (Homo sapiens, UniProt P41143)          pKi    7.60
 7  CC(C)(C)C(=O)N(CCN1[C@@H]2CC[C@H]1C[C@@H](c1cccc(C(N)=O)c1)C2)CC1CCCCC1  Delta-type opioid receptor (Homo sapiens, UniProt P41143)          pKi    8.70
 8  NC(=O)c1cccc([C@H]2C[C@H]3CC[C@@H](C2)N3CCN(CCCc2ccccc2)C(=O)CO)c1  Delta-type opioid receptor (Homo sapiens, UniProt P41143)          pKi    7.50
 9  NC(=O)c1cccc([C@H]2C[C@H]3CC[C@@H](C2)N3CCN(Cc2ccccc2)C(=O)CO)c1  Delta-type opioid receptor (Homo sapiens, UniProt P41143)          pKi    8.30
10  CN(C)S(=O)(=O)N(CCN1[C@@H]2CC[C@H]1C[C@@H](c1cccc(C(N)=O)c1)C2)CC1CCCCC1  Delta-type opioid receptor (Homo sapiens, UniProt P41143)          pKi    8.70

Data origin: ChEMBL document CHEMBL4406921
